assayedTarget: T1, human CD276 protein (human, UniProt Q5ZPR3 29-534)
T1 sequence (looked up): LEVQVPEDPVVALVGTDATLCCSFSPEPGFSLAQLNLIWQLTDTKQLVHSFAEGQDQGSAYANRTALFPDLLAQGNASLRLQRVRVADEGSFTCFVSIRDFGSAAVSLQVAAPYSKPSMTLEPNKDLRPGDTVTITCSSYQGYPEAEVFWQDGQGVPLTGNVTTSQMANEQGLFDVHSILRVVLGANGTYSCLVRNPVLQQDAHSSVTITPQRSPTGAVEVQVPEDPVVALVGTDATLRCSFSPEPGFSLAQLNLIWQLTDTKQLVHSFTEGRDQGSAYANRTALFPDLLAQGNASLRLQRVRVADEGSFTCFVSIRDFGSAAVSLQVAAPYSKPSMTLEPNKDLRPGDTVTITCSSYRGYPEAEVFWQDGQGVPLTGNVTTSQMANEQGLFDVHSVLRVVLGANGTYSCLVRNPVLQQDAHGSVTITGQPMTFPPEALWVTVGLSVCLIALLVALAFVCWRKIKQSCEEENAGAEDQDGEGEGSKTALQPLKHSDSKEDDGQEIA
protocolText: cell-based or functional assay
endpoint: IC50 of indirect ADC cytotoxicity on SKOV3 (nM)
Give bare numbers, in nM.

{"columns": ["binder", "observedValue"],
 "data": [
  ["10-B9-D10-A12 (human IgG1 chimeric antibody) (antibody, V domains shown, human IgG1 chimeric antibody of the mouse clone) VH: EVQLQESGPELVRPGVSVKISCKGSGYTFTDYTMHWVKLSHAKSLEWIGVISTYYGNTNYNQKFKGKATLTVDKSSSTAYMELARLTSEDSAIYYCARASYGSGYGPYYWYFDVWGAGTTVTVSS VL: DIQMTQSPASLFASVGETVTITCRASEKIYSYLAWYFQKQGKSPQFLVYNANALAEGVPSRFSGSGSGTQFSLKINSLQPEDFGTYYCQHHYGTPVTFGAGSKLELK", 0.021],
  ["22-E11-C3-F2 (human IgG1 chimeric antibody) (antibody, V domains shown, human IgG1 chimeric antibody of the mouse clone) VH: QIQLVQSGPELKRPGETVKISCKASGYSFTNYGMNWVKQAPGKGLKWMGWINPYTGEPTYADDFKGRFAMSLETSASAAYLQINNLKNEDMATYFCGRDDGYHYTMNYWGQGTSVTVSS VL: DVVMTQPPLSLPVSLGDQASISCRSSQSLIHSNGDTYLHWYLQKPGQSPKLLIYKVSIRFSGVPDRFSGSGSGTDFTLKISRVEAEDLGVYFCSQSTYVPWTFGGGTKLEIK", 0.016],
  ["10-G6-C4-B2 (human IgG1 chimeric antibody) (antibody, V domains shown, human IgG1 chimeric antibody of the mouse clone) VH: EVQLVESGGGLVQPGGSLRLSCATSGFTLSDYYMSWVRQPPGKAPEWLGFMRNKANGYTTEYSASVRGRFTISRDTSQSIIYLQMNTLRAEDGATYYCVRDRDGRPFAYWGQGTLVTVSA VL: DIVMTQSPSSLTVTAGEKVTMSCKSSQSLLNSINQKNFLTWYQQKPGQPPKLLIYWASTRESGVPDRFTGSGSGTDFTLTISSVQAEDLAIYYCQNDYTYPLTFGTGTKLELK", 0.008]
]}

Go through the list and state IC50 of indirect ADC cytotoxicity on SKOV3 for each entry.
1. MGC018 (antibody, V domains shown) VH: EVQLVESGGGLVKPGGSLRLSCAASGFTFSSYGMSWVRQAPGKGLEWVATINSGGSNTYYPDSLKGRFTISRDNAKNSLYLQMNSLRAEDTAVYYCARHDGGAMDYWGQGTTVTVSS VL: DIQMTQSPSSLSASVGDRVTITCRASESIYSYLAWYQQKPGKAPKLLVYNTKTLPEGVPSRFSGSGSGTDFTLTISSLQPEDFATYYCQHHYGTPPWTFGQGTRLEIKR
2. 18-F9-D8-G7 (human IgG1 chimeric antibody) (antibody, V domains shown, human IgG1 chimeric antibody of the mouse clone) VH: EVQLQQSGPELVRPGVSVKISCKGSGYTFTDYAMHWVKQSHAQSLEWIGIINTYSGDTNYNQKFKGKATMTVDKSSSTAYMGLARLTSEDSAIFYCARGGGNYPYWYFDVWGAGTTVTVSS VL: ENVLTQSPAIMSASPGEKVTMTCRASSSVSSSYLHWYQQKSGDSPKLWIYSTSNLASGVPARFSGSGSGTSYSLTISSVEAEDAATYYCQQFSVYPLTFGAGTKLEIK

0.013
0.014
